Test system: U2OS
Test: Multiplex assay against U2OS
Type: toxicity, cell-based
Settings: human, 12 h, 1 µM, compound concentration 1 uM, replicate 1
Consider the following compounds; for each one, report its Population Pyknosed Nuclei (%).
Lab book: enter the figure in %, no units written.

Query: Report measured Population Pyknosed Nuclei (%) on U2OS; entry: "COc1ccc2[nH]c(I)c(CCNC(C)=O)c2c1"
Response: 5

Query: Report measured Population Pyknosed Nuclei (%) on U2OS; entry: "C[C@H](NC(=O)CNC(=O)c1cccc(Cl)c1)c1ccccc1"
Response: 12

Query: Report measured Population Pyknosed Nuclei (%) on U2OS; entry: "CSc1nc(NC2CCCC2)c([N+](=O)[O-])c(NC2CCCC2)n1"
Response: 8

Query: Report measured Population Pyknosed Nuclei (%) on U2OS; entry: "N[C@](CC1c2ccccc2Oc2ccccc21)(C(=O)O)[C@H]1C[C@@H]1C(=O)O"
Response: 9

Query: Report measured Population Pyknosed Nuclei (%) on U2OS; entry: "CC(C)C[C@H](CO)Nc1nc(S[C@@H](C)c2ccccc2)nc2nc(N)sc12"
Response: 14

Query: Report measured Population Pyknosed Nuclei (%) on U2OS; entry: "S=C(NCCCc1c[nH]cn1)NCCCN(Cc1ccc(Cl)c(Cl)c1)c1ccc(Br)cn1"
Response: 9

Query: Report measured Population Pyknosed Nuclei (%) on U2OS; entry: "Cn1cc(C(=O)OCC2CCN(CCNS(C)(=O)=O)CC2)c2ccccc21"
Response: 8

Query: Report measured Population Pyknosed Nuclei (%) on U2OS; entry: "COc1cc2nc(N3CCN(C(=O)COc4c(OC)cccc4C(C)C)CC3)nc(N)c2cc1OC.Cl.Cl"
Response: 11

Query: Report measured Population Pyknosed Nuclei (%) on U2OS; entry: "CC(C)(O)C(=O)N1CCN(c2ccc(C(F)(F)F)c(C3=C(c4c[nH]c5ccccc45)C(=O)NC3=O)c2)CC1"
Response: 7

Query: Report measured Population Pyknosed Nuclei (%) on U2OS; entry: "Cc1c(Cc2ccc3ccccc3n2)c2cc(F)ccc2n1CC(=O)O"
Response: 8

Query: Report measured Population Pyknosed Nuclei (%) on U2OS; entry: Cc1ccc(OCC(O)C(C)NC(C)C)c2c1CCC2.Cl (stereo unspecified)
Response: 13

Query: Report measured Population Pyknosed Nuclei (%) on U2OS; entry: CCC(=O)OCC(=O)[C@@]1(OC(=O)CC)[C@@H](C)C[C@H]2[C@@H]3CCC4=CC(=O)C=C[C@]4(C)[C@@]3(Cl)[C@@H](O)C[C@@]21C [BECLOMETHASONE DIPROPIONATE]
Response: 12

Query: Report measured Population Pyknosed Nuclei (%) on U2OS; entry: COc1cc2nc(N3CCN(C(=O)c4ccco4)CC3)nc(N)c2cc1OC.Cl [PRAZOSIN HYDROCHLORIDE]
Response: 7

Query: Report measured Population Pyknosed Nuclei (%) on U2OS; entry: "O=c1nc2[nH]c3ccccc3nc-2c(=O)[nH]1"
Response: 12

Query: Report measured Population Pyknosed Nuclei (%) on U2OS; entry: "COCCn1c(C)c(C)s/c1=N\C(=O)C1C(C)(C)C1(C)C"
Response: 6

Query: Report measured Population Pyknosed Nuclei (%) on U2OS; entry: "COc1cc(OC2CCN(C(C)=O)CC2)ccc1C(=O)N1CCC(N2C(=O)OCc3ccccc32)CC1"
Response: 9

Query: Report measured Population Pyknosed Nuclei (%) on U2OS; entry: "CC(C)(C)c1ccc(CSc2cnn(C(C)(C)C)c(=O)c2Cl)cc1"
Response: 9

Query: Report measured Population Pyknosed Nuclei (%) on U2OS; entry: "Cc1cc(NC(=O)NCCN2CCC(O)(Cc3ccccc3)CC2)c2ccccc2n1"
Response: 6

Query: Report measured Population Pyknosed Nuclei (%) on U2OS; entry: "Cc1cc(-c2ccc3c(c2)CC[C@H]3N2CC3(CCN(C(=O)Cc4cn5cc(C)sc5n4)CC3)C2)ncn1"
Response: 9

Query: Report measured Population Pyknosed Nuclei (%) on U2OS; entry: "CN(C)C(=O)Cn1cc(-c2ccc(-c3nnc4ccccn34)cc2)cn1"
Response: 8

Query: Report measured Population Pyknosed Nuclei (%) on U2OS; entry: Cl.Cl.OCCOCCN1CCN(C(c2ccccc2)c2ccc(Cl)cc2)CC1 (stereo unspecified) [HYDROXYZINE HYDROCHLORIDE]
Response: 9

All figures here come from ChEMBL document CHEMBL5058577.
